Measured Internalization (%), FACS, 1 µg/ml, 4 h of individual entries
biological target: human PD-L1 expressed on cell surface (human, UniProt Q9NZQ7 19-290); assay: cell-based or functional assay
Sequence (Q9NZQ7 19-290 limits assumed): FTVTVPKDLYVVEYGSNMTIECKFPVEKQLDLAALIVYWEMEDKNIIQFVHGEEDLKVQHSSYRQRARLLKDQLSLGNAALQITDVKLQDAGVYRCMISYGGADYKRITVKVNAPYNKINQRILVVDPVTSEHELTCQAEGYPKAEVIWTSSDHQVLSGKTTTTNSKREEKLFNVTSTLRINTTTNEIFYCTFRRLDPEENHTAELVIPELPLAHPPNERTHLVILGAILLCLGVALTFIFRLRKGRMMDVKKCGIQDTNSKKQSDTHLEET
The response must be a number in % with no trailing unit.

A selection of reference data follows.
[[record]]
binder = "32E2 (antibody, human IgG1, V domains shown) VH: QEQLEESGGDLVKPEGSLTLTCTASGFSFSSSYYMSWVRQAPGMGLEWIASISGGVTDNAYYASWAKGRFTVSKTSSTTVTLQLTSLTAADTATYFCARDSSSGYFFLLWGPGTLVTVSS VL: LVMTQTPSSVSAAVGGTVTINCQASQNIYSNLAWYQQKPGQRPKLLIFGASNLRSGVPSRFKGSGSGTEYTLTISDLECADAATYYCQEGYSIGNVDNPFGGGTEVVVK"
quantity_measured = "Internalization (%), FACS, 1 µg/ml, 4 h"
numeric_readout = 7.2

[[record]]
binder = "55H3/76D6 (antibody, human IgG1, V domains shown) VH: QEQLEESGGGLVQPEGSLTLTCTVSGFSFSGDYYMSWVRQAPGKGLEWVASIYTGSLNSYYATWAKGRFTISLTSSTTVTLQMTSLTAADTATYFCARRNKNADYGHFDLWGPGTLVTVSS VL: YDMTQTPASVEVAVGGTVTIKCQASESINDRLAWYQQKPGQPPKLLIYAASTLASGVPSRFRGSGSGTDFTLTISDLECADAATYYCQQGWTVSSLDNAFGGGTEVVAM"
quantity_measured = "Internalization (%), FACS, 1 µg/ml, 4 h"
numeric_readout = 17.9


Kindly review the next binder as well.
### Prompt Query Internalization (%), FACS, 1 µg/ml, 4 h for 57B10 (antibody, human IgG1, V domains shown) VH: QEQLEESGGGLVQPEGSLTLTCTASGFSFSDDYYMSWVRQAPGKGLEWIASIYTGSLNTYYATWAKGRFTISLTSSTTVTLQMTSLTAADTATYFCARRNKNADWGHFDLWGPGTLVTVSS VL: YDMTQTPASVEVAVGGTVTIKCQASQSISTALAWYQQKPGQPPKLLIYAASTLASGVPSRFRGSGSGTDFTLTISDLECADAATYYCQQGWTVSSLDNAFGGGTEVVAM
### Response 15.6
